Taken from PubChem BioAssay AID1508600.

Experiment: Components of the Cytosolic LPS Sensing Pathway: Gene Identification via Genome-wide siRNA Screen;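 also: robust z of the log signal after scaling to non-targeting control siRNA wells of the plate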
Details: RAW264.7 macrophages, IL-1a HTRF, actives lie on both sides, screened at 100 nM (by protocol), cells primed 5 h with Pam3CSK4 first
In all, about 53,000 sequences went through this assay and about 3,700 (7%) were called active. This is one part of a sample in which actives are shown more often than they occur.
readoutKind: z-score
Just the number.

Use these answered entries as a reference point.
I have this sequence here, GCUUUGGACAAUAAGAAGUTT against Cdkl1 , and I need its recorded z-score.
-0.838

I have this sequence here, GGUUCUUGGUGAUGAUGAGTT against Pds5a , and I need its recorded z-score.
-2.6

I have this sequence here, GGAUAAAGCCACAUUUGGUTT against Apoh , and I need its recorded z-score.
-0.483

I have this sequence here, CGGUUAAAAGCCCUCAGCATT against Olfr592 , and I need its recorded z-score.
-1.41

I have this sequence here, CCGUCUUCUGCUGUGGAACTT against Ctrc , and I need its recorded z-score.
2.6

I have this sequence here, GCGCAAUAUAGAGUCAUCATT against Rnls , and I need its recorded z-score.
-2.83

I have this sequence here, GGAAAAACUGCUAGAUCUATT against As3mt , and I need its recorded z-score.
1.49

I have this sequence here, CCUGGUGCCUUUAUCUACCTT against Ctxn1 , and I need its recorded z-score.
0.907

I have this sequence here, CCUCGACUUUUAUUUGGAUTT against Smg6 , and I need its recorded z-score.
-0.0389

I have this sequence here, GGAAAUGAGCCAGGAUGGUTT against Cdca4 , and I need its recorded z-score.
0.0601

Next:
I have this sequence here, GGAUCUGUAUUGUAAACAATT against Pcmtd2 , and I need its recorded z-score.
0.463

I have this sequence here, GGGUUUUUUCCAGUCAUCUTT against Nfx1 , and I need its recorded z-score.
-2.02

====

Experiment: Components of the Cytosolic LPS Sensing Pathway: Gene Identification via Genome-wide siRNA Screen;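 also: robust z of the log signal after scaling to non-targeting control siRNA wells of the plate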
Details: RAW264.7 macrophages, IL-1a HTRF, actives lie on both sides, screened at 100 nM (by protocol), cells primed 5 h with Pam3CSK4 first
Hit rate of the full screen: of about 53,000 sequences, about 3,700 (7%) were called active.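 The calls were made as follows: active = gene knockdowns whose robust z-score for IL-1 alpha signal is at least 2 or at most -2, so actives lie on both sides; inactive = the rest.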 The full list was thinned out, with actives kept by preference.
Valid outcomes are listed here; reply with one: active, inactive

Field: outcome | Entry: ACAGGAGUCCAUAGCCGUCTT against Aspscr1
inactive

Field: outcome | Entry: GGACAUCAAGAAGGACAAATT against Ppp2r5d
inactive

Field: outcome | Entry: GGAUUAGGAUCAGCAGGAUTT against Accs
inactive

Field: outcome | Entry: GGUCAAAGGUGAAGAGAAATT against Chgb
inactive

Field: outcome | Entry: GGACUGUGGCACAGAGAAATT against Hgfac
inactive

Field: outcome | Entry: CCCGUAUGGAUGUGGUAACTT against Tmem239
inactive

Next:
Field: outcome | Entry: GGAAGCAUUGAUUUUCAUCTT against Prok2
inactive

Field: outcome | Entry: GGAAGAUGGGCGACUCUAUTT against Pkmyt1
inactive

Field: outcome | Entry: CCCUCACAACUUGAAGGACTT against Ccnk
inactive

====

Assay: Components of the Cytosolic LPS Sensing Pathway: Gene Identification via Genome-wide siRNA Screen;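 also: robust z of the log signal after scaling to non-targeting control siRNA wells of the plate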
Details: RAW264.7 macrophages, IL-1a HTRF, actives lie on both sides, screened at 100 nM (by protocol), cells primed 5 h with Pam3CSK4 first
About 3,700 (7%) of roughly 53,000 sequences were called active.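 The calls were made as follows: active = gene knockdowns whose robust z-score for IL-1 alpha signal is at least 2 or at most -2, so actives lie on both sides; inactive = the rest.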 This excerpt belongs to a sample that is enriched for actives.
Valid outcomes are listed here; reply with one: active, inactive

A selection of reference data follows.
Field: outcome | Entry: GGAGAUACAUUGGUAGGUATT against Idua
inactive

Field: outcome | Entry: GCAGUUGCGUUCUAUUGAATT against Ccdc86
inactive

For the next question, use this sequence.
Field: outcome | Entry: GCUACAUACCCAAAUACAUTT against Trpc4ap
active
